The values you see were collected from patent US12365680B2.

tested on: intragastric acidity; experiment: Clinical Phase I study of linaprazan glurate, intragastric pH; type: in vivo; details: human, plasma, oral; after 22 hours; to maintain intra-gastric pH above 4 for 24 hours; read-out: minimal plasma concentration (Cmin) of linaprazan required
readout_type: concentration at 22 h

INSERT INTO results (line_notation, result) VALUES
  ('Cc1cccc(C)c1CNc1cc(C(=O)NCCO)cn2c(C)c(C)nc12', '≥ 240 nM');
